# METHOD_DESCRIPTION: folding stability dG unfold from chymotrypsin proteolysis; higher = more stable
MEASURED_PROPERTY: folding stability dG unfold (kcal/mol)
Only the number, expressed in kcal/mol, is required.

# input Returns the measured folding stability dG unfold for the input sequence. Input: SAGGSAGGSAGDPKKKPPKPILGFELAEFEITTEDGTKYKVKALIIYFPDTGTKVIFVLGSAGGSAGGSAGG [r11_1024_TrMRF]
# output 4.73

# input Request: SAGGSAGGSAGGMREIAREIWEEYNNPVTIRIRNPNGKHEPFRFPDDPEDIPGWDIDDITSAGGSAGGSAGG [r7_998_TrROS]
# output 0.79

# input Item: SAGGSAGGSAPLRFEFELPGNYRVRIELEPVPDDPSAGPRYRLRIEVFDLETGEVLPFEIDGSAGGSAGGSA [r18_66_TrMRF]
# output 4.18

# input Next sequence up: SAGGSASPEKVAEELKKKGYKEVKITKDPNTNVTTVTVEDPSGKKYTLTVDPKNPTVVSKKEFSLDSAGGSA [r15_648_JUSTAS]
# output 1.51

# input Another: SAMTLTLEFENLKDLTEEEIEEALKEAGLPGVKILGIKKTSEKWTITIAYDSSTPKEKIEAAIKKAVAESAG [r14_657_JUSTAS]
# output 4.64

# input Same again, this time with SAGGSAGGSAGMTLLVKNEDGYLVKIEITEVEVDENGELHLKVKVEVLPPLEEVEEVEEESAGGSAGGSAGG [r17_536_TrROS_Hall]
# output 1.79

# input // query: SAGGSAGGSTAKEIADKLGFDNVEIKPTKPVEQRKDPNGKWRRQYVYTIKIRNPDGREWTIPISAGGSAGGS [r12_221_TrROS]
# output 0.449

----------
# METHOD_DESCRIPTION: folding stability dG unfold (combined trypsin and chymotrypsin); higher = more stable
Could you please report measured folding stability dG unfold for the items listed next?

# input What measured folding stability dG unfold goes with SAGGSAGGSAGGMITVEVEVPGDEAEAEARREAIAEELAAEGHEDVPITVTFVSPEEAASAGGSAGGSAGGS [r10_1099_JUSTAS] ?
# output 0.64 kcal/mol

# input Please give the result for SAGGSAKVKYKKDKNGNTYPVVEEKKKIKLTVKIKIFDKNGKLVKEITFPANMTLEEIEKEIKKLLSAGGSA [r15_309_TrROS_Hall] too.
# output 1.61 kcal/mol

# input // same read-out, input: SAGGSAGGSAGRLPPGMKIRIWHRRDGKPRRREFEIPPGMPSIEDAAKEHPPIESVKIERSAGGSAGGSAGG [r11_157_TrROS]
# output < -1 kcal/mol

# input Next sequence up: SAGGKKVVIVFDVENLTPEQIRELVRKAIESLPDPENVVIVANVTSPATVEELAELAKEHPEVKFVVGSAGG [r13_718_TrMRF]
# output 3.56 kcal/mol

----------
# METHOD_DESCRIPTION: folding stability dG unfold from trypsin proteolysis; higher = more stable
MEASURED_PROPERTY: folding stability dG unfold

# input Using the record for SAGGSAGGRFTVQFRVPGTLEEAREKAEEIAENLPPNFKDVEVDIEPHPKNGWIRVEVQIKMKKSAGGSAGG [r6_164_TrROS] , report its folding stability dG unfold.
# output 0.991 kcal/mol

# input Similarly, KTIEIWIPMPMGQAETFVKSLARKLGLPPDDYKVDNVEMQPNKDGWPYVKMEIKLPNNGKEIEIIMPPGWFS [r1_21_TrROS] ?
# output 1.67 kcal/mol

# input Then this sequence: SNKIDKRIVSVTFYESLPNGSVKVNNLVFISTSDGKVRLVNAGEITIPLGDKTLSINIGEASSNVKLGKISA [r9_1113_TrMRF]
# output 1.01 kcal/mol

# input Could you do the same for SAGMVTYTVTVPYAPAGKRVRVTLFDEGKEIASFEGVENAPYNQTFTFTAPPFTIRIEYEDGSVDPLPASAG [r5_646_TrMRF] , please?
# output 3.32 kcal/mol
